- system: T1, human TIGIT over-expressed on cells (human, UniProt Q495A1 22-244)
- T1 construct: also called CHO-K1/human TIGIT cells; CHO cells expressing human TIGIT
- T1 sequence: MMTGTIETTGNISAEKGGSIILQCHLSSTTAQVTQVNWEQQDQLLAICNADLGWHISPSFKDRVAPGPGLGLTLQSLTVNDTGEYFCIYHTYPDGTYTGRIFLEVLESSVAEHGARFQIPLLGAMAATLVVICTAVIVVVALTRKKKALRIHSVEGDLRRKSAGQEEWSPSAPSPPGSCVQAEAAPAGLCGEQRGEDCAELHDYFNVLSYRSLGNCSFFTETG
- assay info: competition FACS, CHO cells expressing human TIGIT; competitor PVR recombinant protein
reported metric: Top (best-fit)
// no unit string in output, number only

Sure, the documented Top (best-fit) for 64G1E9B4 chimeric (antibody, V domains shown, also called 64G1 Chimeric) VH: EVQLQQSGPELVKPGASVKISCKTSGYTFTEHVIHWVKQSHGKSLEWIGGFNPNHDGTIYNQIFRGKATLTVDKSSSTAYMELRSLTSEDSAVYFCTRAAKLLFAMDYWGQGTSVTVSS VL: DIVMTQSHKFMSTSIGDRVSITCKASQHVSNAVVWYQQKPGQSPKLLIYSPSYRFTGVPDRFTGSGSGTDFTFTISSVQAEDLAVYYCQQHYSTPWTFGGGTKLEIK is 772

Sure, the documented Top (best-fit) for 64G1E9B4VH1_VL1.M1 (antibody, human IgG1, V domains shown, Humanized antibody, variable domains fused with the constant region of human IgG1; also called 64G1VH1_VL1.M1) VH: EVQLVQSGAEVKKPGSSVKVSCKASGYTFTEHVIHWVRQAPGQGLEWMGGFNPNHDGTIYNQIFRGRVTITADKSTSTAYMELSSLRSEDTAVYYCARAAKLLFAMDYWGQGTTVTVSS VL: DIQMTQSPSSLSASVGDRVTITCRASQHVSNAVVWYQQKPGKAPKLLIYSPSYRFTGVPSRFSGSGSGTDFTLTISSLQPEDFATYYCQQHYSTPWTFGGGTKVEIK is 820

Sure, the documented Top (best-fit) for 100C4E7D11 chimeric (antibody, V domains shown, also called 100C4 Chimeric) VH: EVMLVESGGGLVKPGGSLKLSCAASGFTFSFYTMSWVRQTPEKRLEWVATISSGGGSTYYSDSVKGRFTISRDNAKNNLYLQMTSLRSEDTALYYCSRSLPVDYWGQGTTLTVSS VL: QIVLTQSPAIMSASLGERVTMTCTASSSVSSTYLHWYQQKPGSSPKLWIYSTSNLASGVPARFSGSGSGTSYSLTISSMEAEDAATYYCHLYHHSPYTFGGGTKLEIK is 678

Sure, the documented Top (best-fit) for 64G1E9B4VH1.M1_VL1.M1 (antibody, human IgG1, V domains shown, Humanized antibody, variable domains fused with the constant region of human IgG1; also called 64G1VH1.M1_VL1.M1) VH: EVQLVQSGAEVKKPGSSVKVSCKASGYTFTEHVIHWVRQAPGQGLEWMGGFNPNHGGTIYNQIFRGRVTITADKSTSTAYMELSSLRSEDTAVYYCARAAKLLFAMDYWGQGTTVTVSS VL: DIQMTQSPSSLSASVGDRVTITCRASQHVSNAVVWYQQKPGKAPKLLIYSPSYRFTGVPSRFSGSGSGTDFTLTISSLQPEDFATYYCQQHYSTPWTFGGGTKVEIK is 508

Data origin, for the record: patent US20210095028A1
